test system: RPMI-8226; test: Cytotoxicity against human RPMI8226 cells assessed as cell viability; assay type: functional, cell-based
READOUT: IC50

INSERT INTO measurements (substance_smiles, readout_value) VALUES
  ('CN[C@@H](C)C(=O)N[C@H](C(=O)N1CC[C@H]2CN(CCc3ccccc3)CC[C@H]21)C1CCCCC1', '30 µM');

* * *

target: E3 ubiquitin-protein ligase XIAP (Homo sapiens); experiment: Inhibition of XIAP-Bir3 domain by NMR titration
Sequence (P98170 whole entry, the tested form may be a part): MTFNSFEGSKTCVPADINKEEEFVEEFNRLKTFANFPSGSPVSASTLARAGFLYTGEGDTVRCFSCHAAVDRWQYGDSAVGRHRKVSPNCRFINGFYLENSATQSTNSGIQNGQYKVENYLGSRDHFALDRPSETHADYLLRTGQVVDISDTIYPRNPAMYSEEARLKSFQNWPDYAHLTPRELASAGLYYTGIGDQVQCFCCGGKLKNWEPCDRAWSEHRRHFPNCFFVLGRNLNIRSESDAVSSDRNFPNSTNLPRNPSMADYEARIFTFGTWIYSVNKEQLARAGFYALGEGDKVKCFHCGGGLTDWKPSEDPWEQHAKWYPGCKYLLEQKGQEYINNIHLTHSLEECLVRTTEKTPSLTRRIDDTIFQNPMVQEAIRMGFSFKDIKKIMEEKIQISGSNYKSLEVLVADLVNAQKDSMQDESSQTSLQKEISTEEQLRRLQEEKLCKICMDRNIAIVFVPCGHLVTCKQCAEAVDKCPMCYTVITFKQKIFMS
READOUT: Kd (µM)

INSERT INTO results (molecule, target_desc, readout_value) VALUES
  ('CCN1CCN(C(=O)[C@@H](NC(=O)[C@H](C)N)C(C)C)C(C(=O)NC(c2ccccc2)c2ccccc2)C1 (stereo partly specified)', 'E3 ubiquitin-protein ligase XIAP (Homo sapiens)', 27.7);

* * *

biological target: E3 ubiquitin-protein ligase XIAP (Homo sapiens); experiment: Inhibition of XIAP-Bir3 domain by calorimetric titration assay
pKd: −log10 of the molar value.
READOUT: pKd

INSERT INTO measurements (molecule, target_desc, readout_value) VALUES
  ('CCN1CCN(C(=O)[C@@H](NC(=O)[C@H](C)N)C(C)C)C(C(=O)NC(c2ccccc2)c2ccccc2)C1 (stereo partly specified)', 'E3 ubiquitin-protein ligase XIAP (Homo sapiens)', 4.67);

* * *

biological target: UniProtKB P98170; test: Inhibition of XIAP-Bir3 domain at 10 uM by TR-FRET assay
Below, each entry is listed with its recorded inhibition.
READOUT: inhibition (%)

INSERT INTO assay_data (compound, readout, readout_value) VALUES
  ('CC(C)C(NC(=O)[C@H](C)N)c1nc(C(=O)NCc2ccccc2)c(-c2ccccc2)s1 (some centres undefined)', 'inhibition', 58),
  ('CC(C)[C@H](NC(=O)[C@H](C)N)C(O)c1nnnn1CCc1ccccc1 (some centres undefined)', 'inhibition', 15),
  ('CC(C)[C@H](NC(=O)[C@H](C)N)C(=O)N1C(C(=O)NC(c2ccccc2)c2ccccc2)CSC1(C)C (single isomer, unassigned; diastereomer A)', 'inhibition', 67.4),
  ('CC(C)[C@H](NC(=O)[C@H](C)N)C(=O)N1C(C(=O)NC(c2ccccc2)c2ccccc2)CSC1(C)C (stereo in doubt; 9)', 'inhibition', 15.8);

* * *

biological target: E3 ubiquitin-protein ligase XIAP (Homo sapiens); test: Inhibition of XIAP-Bir3 domain at 100 uM by TR-FRET assay
READOUT: inhibition (%)

INSERT INTO measurements (compound, units_of_measure, readout_value) VALUES
  ('CC(C)[C@H](NC(=O)[C@H](C)N)C(=O)N1C(C(=O)NC(c2ccccc2)c2ccccc2)CSC1(C)C (stereo in doubt; 9)', '%', 83.2),
  ('CCN1CCN(C(=O)[C@@H](NC(=O)[C@H](C)N)C(C)C)C(C(=O)NC(c2ccccc2)c2ccccc2)C1 (stereo partly drawn)', '%', 96.9),
  ('CC(C)[C@H](NC(=O)[C@H](C)N)C(=O)N1C(C(=O)NC(c2ccccc2)c2ccccc2)CSC1(C)C (stereo in doubt)', '%', 83.6),
  ('CC(C)[C@H](NC(=O)[C@H](C)N)C(=O)N1C(C(=O)NC(c2ccccc2)c2ccccc2)CSC1(C)C (single isomer, unassigned; diastereomer A)', '%', 97.1),
  ('CC(C)C(NC(=O)[C@H](C)N)c1nc(C(=O)NCc2ccccc2)cs1 (stereo partly drawn)', '%', 23.4),
  ('CC(C)[C@H](NC(=O)[C@H](C)N)C(=O)N1CCCN(C2CCCCC2)CC1C(=O)NC(c1ccccc1)c1ccccc1 (stereo partly drawn)', '%', 82.5),
  ('CC(C)C(NC(=O)[C@H](C)N)c1nc(C(=O)NCc2ccccc2)c(-c2ccccc2)s1 (stereo partly drawn)', '%', 97.2),
  ('CC(C)[C@H](NC(=O)[C@H](C)N)C(O)c1nnnn1CCc1ccccc1 (stereo partly drawn)', '%', 20.7);
